Origin of the recorded values: patent US8163793B2

molecular target: Cat L (UniProt P07711); experiment: Cathepsin enzyme inhibition assay (fluorogenic peptide substrate Z-Val-Val-Arg-AMC), Cathepsin L; type: biochemical, human and mouse; details: @25 uM compound
endpoint.name: CatL, % @25 uM (% @25 uM)
The reply should be a number in % @25 uM, with the unit left off.

>>> value_reported("Cc1cc(N2C[C@H](S(=O)(=O)CC3CC3)C[C@H]2C(=O)NC2(C#N)CC2)n(CC(F)(F)F)n1")
95
>>> value_reported("Cc1cc(N2C[C@H](S(C)(=O)=O)C[C@H]2C(=O)NC2(C#N)CC2)n(CC(F)(F)F)n1")
95

**Query** I have this compound here, `Cc1cc(N2C[C@H](S(=O)(=O)CC3CC3)C[C@H]2C(=O)NC2(C#N)CC2)n(-c2ccc(C(F)(F)F)cc2)n1` , and I need its recorded CatL, % @25 uM.
**Result** 97

**Query** I have this compound here, `Cc1cc(N2C[C@H](S(=O)(=O)CC3CC3)C[C@H]2C(=O)NC2(C#N)CC2)n(CCc2ccccc2)n1` , and I need its recorded CatL, % @25 uM.
**Result** 94
